assay: growth suppression of PTEN-deleted HCT116, pilot screen, cell-based, HCT116 clonal line, CellTiter-Glo (AID 824);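 note: 0% = 20 µM Hyamine control and 100% = vehicle cell control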
conditions: 60 h, at 10 µM, stronger effect = lower value
Records with an inconclusive call do not appear.
property: viability (%)
One number for each entry, in %.

Look over these answered cases.
molecule | viability (%)
Cc1ccc(N2CCN(S(=O)(=O)c3ccc(F)cc3)CC2)c(C)c1 | 60.9
CNC(=O)C1CC(=O)N(c2ccc(C)cc2)C1 (stereo not given) | 102
O=C(Nc1ccc(N2CCCC2)c(Cl)c1)c1ccco1 | 89.1
C=CCOC(=O)C1=C(C)NC(=O)NC1c1ccc(Cl)cc1 (stereo not given) | 88.2
C=CCSc1nnc(Cn2c(=O)sc3ccccc32)n1C | 104
COc1ccccc1CNS(=O)(=O)c1ccc2c(c1)oc(=O)n2C | 86.7

Please supply viability for each of the following items, keeping them in order.
1. CCOC(=O)C1CCCN(C(=O)c2cc3c(=O)n(C)c4ccccc4c3n2C)C1 (stereo not given)
2. Cc1ccccc1NC(=O)CCn1c(=O)oc2ccccc21
3. O=C(c1cc2c(ccc3ccccc32)oc1=O)N1CCN(CCO)CC1
4. Cc1cc(Nc2ccc(F)cc2C)n2nc(C)nc2n1
5. CC(C)(C)c1ccc(OCC(O)CS(=O)(=O)c2ccccn2)cc1 (stereo not given)

[out]
[92.7, 91.3, 93.7, 98.7, 94.5]

Give viability for all molecules that follow.
1. CCOC(=O)CCCSc1nc2sc(C)c(C)c2c(=O)[nH]1
2. O=C(Cn1nc(-c2ccccc2)ccc1=O)N1CCOCC1
3. COc1ccc(C2(CNC(C)=O)CCOCC2)cc1OC

[out]
98.5
108
97.8

For each of the molecules below, state viability.
1. CC(=O)Nc1cccc(N(C)C)c1
2. CCOc1ccc(C(=O)c2nc3c(n2O)CCCC3)cc1
3. Cc1n[nH]c(C)c1S(=O)(=O)N(CC(=O)Nc1ccc2c(c1)OCCO2)c1ccc(C(C)C)cc1
4. CN1CCN(CCCNC(=O)c2cc3c(-c4ccc(Cl)cc4)nn(C)c3s2)CC1
5. Cc1ccc(-c2cc(C(F)(F)F)n3ncc(C(=O)NCc4ccco4)c3n2)cc1
6. O=C(CC(=O)N1CCN(c2ccccn2)CC1)Nc1ccc2nc3n(c(=O)c2c1)CCCCC3

[out]
105
103
63
2
75.4
100

----------
assay: Restrictive medium S. cerevisiae growth inhibition, OD615, pilot screen of yeast lifespan reduction project, restrictive growth control (AID 706);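 note: modified DeaD lifespan yeast strain shifted to restrictive glucose medium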
conditions: OD615, 48 h, at 10 µM, stronger effect = higher value
property: growth inhibition (%)
Answers are plain numbers, in %.

compound | scale-unit | recorded-value
COc1ccccc1S(=O)Cc1ccc(C(=O)NCc2ccccc2Cl)o1 (centres undefined) | % | -16.8
Cc1ccc(OCCn2c(C)c(/C=N/n3cnnc3)c3ccccc32)cc1 | % | 22.9
Cc1ccc(C(=O)Nc2cccc(C(=O)O)c2)cc1S(=O)(=O)N1CCCCC1 | % | 11.4
COc1ccc(S(=O)(=O)NCc2cn3c(C)csc3n2)cc1F | % | -8.7
Cc1oc(C(C)(C)C)cc1C(=O)Nc1ccc(C(=O)O)cc1 | % | -11.5

Lab note: each compound below needs its growth inhibition filled in.
1. COCc1cc(=O)n2[nH]c(-c3cccc(Br)c3)cc2n1
2. Cc1nc(Cc2nnc(SCc3nc(N)nc(Nc4ccccc4C)n3)o2)cs1
3. COc1ccc(S(=O)(=O)N(CCc2ccccc2)CC(=O)O)cc1OC
4. COc1ccc(NC(=O)c2cc3ccccc3o2)cc1
5. COC(=O)C1=CN(C)C=C(C(=O)OC)C1c1ccc(Cl)cc1Cl
6. COc1ccc(-n2c(Cn3c(=O)sc4ccccc43)nnc2SCC(=O)N2CCOCC2)cc1
7. O=C1c2oc3ccc(Cl)cc3c(=O)c2C(c2ccco2)N1CCN1CCOCC1 (centres undefined)

[out]
1. -16.1
2. 20.5
3. 10.5
4. 10.6
5. -10.4
6. 7.95
7. -4.56

Hi there! I need growth inhibition for each item below, if you can.
1. CN(CC(=O)NC1CCCCCCC1)S(=O)(=O)c1cccc2cccnc12
2. c1csc(Cc2nc(-c3ccc(-n4cccc4)cc3)no2)c1

[out]
[0.405, -14.7]

----------
Please provide measured growth inhibition for the entries that follow.
assay: Restrictive medium S. cerevisiae growth inhibition, OD615, pilot screen of yeast lifespan reduction project, restrictive growth control (AID 706);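 note: modified DeaD lifespan yeast strain shifted to restrictive glucose medium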
conditions: OD615, 48 h, at 10 µM, stronger effect = higher value
One number for each entry, in %.

Would you please look over these solved cases?
compound | growth inhibition, %
Cc1sc2nc(SC(C)C)nc(N)c2c1C | 7.72
COC(=O)c1cc(NC(=O)c2nccnc2C(=O)O)cc(C(=O)OC)c1 | 3.16
CCCCOc1cccc(C2(C(=O)O)CCCC2)c1 | 4.47
COc1ccc(C2C3=C(CC(c4ccco4)CC3=O)Nc3ccccc3N2C(C)=O)cc1 (configuration not stated) | -16.4
CCN(CC)CCCNC(=O)Cn1cc2c(n1)CCC(C)C2 (configuration not stated) | -0.585
O=C(Nc1nc(-c2ccc3c(c2)OCO3)cs1)C1COc2ccccc2O1 (configuration not stated) | 3.12
COc1ccc(-c2ccc(=O)n(CC(=O)N3CCN(c4ccccc4OC)CC3)n2)cc1 | 12
CCn1cc(C(=O)NCC(=O)OC)c2cc(OC)c(OC)cc2c1=O | -18.9

Please give growth inhibition, item by item, for the list that follows.
1. O=C(Nc1ccccc1Cl)N1CCN(c2ccc3nnc(-c4ccccc4)n3n2)CC1
2. COc1ccc(N2CCN(C(=O)C(Cc3ccccc3)n3cccc3)CC2)cc1 (configuration not stated)
3. O=C1c2ccccc2C(=O)N1CCc1nc2ccccc2c(=O)n1CCCn1ccnc1
4. Nc1nc(SCC(=O)NCCCO)nc2sc3c(c12)CCC3
5. c1ccc(-c2nnc(-c3ccccn3)nn2)nc1
6. CCOC(=O)CSc1nc2nc(C)cc(C)n2n1
7. O=C(O)c1cc(-c2ccc(Cl)cc2)n[nH]1

[out]
1. 29.4
2. -6.94
3. 11
4. -4.31
5. 88.1
6. 6.3
7. 0.335

Count: 2. Required value per item: growth inhibition.
1. Fc1ccc(-n2[nH]nnc2=S)cc1N1CCCC1
2. CC1CCCC(NC(=O)CSc2nnnn2C)C1C (configuration not stated)

[out]
[3.59, -10.1]

Please give growth inhibition for each item listed below.
1. O=C(O)C1CC=CCC1C(=O)Nc1cccc(Cl)c1Cl (configuration not stated)
2. COc1ccc(C(=O)Nc2ccc(Cl)cc2C(=O)NCc2ccco2)cc1OC
3. CCCCOCCCNC(=O)Cc1cccs1
4. O=C(Oc1ccccc1)c1cccc(N2C(=O)CCC2=O)c1
5. Cc1oc(-c2ccc(Cl)cc2)nc1CN1CCCC(C(=O)NCCCN2CCCC2=O)C1 (configuration not stated)

[out]
1. -11.1
2. -8.55
3. -10.3
4. 0.85
5. -21.4

----------
assay: inhibitors of the yeast RAM network, pilot screen, dse1pr::URA3 reporter, 5-FOA selection (AID 869);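 note: 0% = DMSO wells with no growth and 100% = 10 µM 1-NA-PP1 with full growth; RAM network block rescues cells from 5-FOA so hits raise OD615 growth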
conditions: S. cerevisiae dse1pr::URA3 5-FOA growth, OD615, 2 d; at 10 µM; stronger effect = higher value; strain carries analog-sensitive mutant Cbk1 kinase
property: inhibition (%)
Give bare numbers, in %.

compound-smiles | recorded-value
CCOC(=O)c1csc(NC(=O)C(C)(C)C)n1 | 0.48
Clc1ccc(C=NC23CN4CN(CN(C4)C2)C3)cc1 | 1.11

We next turn to a different compound, shown below.
[in] Sample O=C(c1ccc2nc(N3CCCCC3)sc2c1)N1CCN(Cc2ccc3c(c2)OCO3)CC1 — what was its inhibition?
[out] 0.76

----------
assay: Restrictive medium S. cerevisiae growth inhibition, OD615, pilot screen of yeast lifespan reduction project, restrictive growth control (AID 706);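 note: modified DeaD lifespan yeast strain shifted to restrictive glucose medium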
conditions: OD615, 48 h, at 10 µM, stronger effect = higher value
Activity calls are given as the source filed them.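 The calls were made as follows: active = growth inhibition above a set limit, 3 SD over mean compound inhibition, in both replicates (cut at about 43% in these data); inconclusive = above the limit in only one replicate; inactive = at or below the limit in both replicates.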
property: growth inhibition

Worked cases, answers included:
compound | growth inhibition
CCC(=O)Nc1ccc(C(=O)c2ccccc2)cc1 | -2.21% (inactive)
CCCCn1ccc(=O)c2c(C(F)(F)F)nccc21 | -11.4% (inactive)
CCOC(=O)CSc1nc2ccccc2c(=O)[nH]1 | -17.3% (inactive)
O=C(C(Cc1ccccc1)n1cccc1)N1CCN(C2CCCCC2)CC1 (configuration not stated) | -3.01% (inactive)
O=C(CN(Cc1ccccc1)S(=O)(=O)c1ccccc1)NC1CC1 | 11.6% (inactive)

Each compound below has a recorded value; state its growth inhibition.
1. CCOc1ccc(C(=O)c2nc3c(n2O)CCCC3)cc1
2. COc1ccc(C2CC(c3ccccc3C)n3nc(N)nc3N2)cc1 (configuration not stated)

[out]
-7.18% (inactive)
17.8% (inactive)

----------
Provide the reported RAM network inhibition of each item.
assay: RAM signaling pathway blockade in yeast – S. cerevisiae, Pdr1DBD-CYC8 efflux-inhibited sensitized strain, primary screen (AID 1298);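 note: 0% = DMSO untreated cells without growth and 100% = 10 µM 1-NA-PP1 full growth; higher means more yeast growth rescued from 5-FOA killing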
conditions: S. cerevisiae cbk1-as DSE1-URA3 strain, 5-FOA growth OD615, 2 d; at 50 µM; stronger effect = higher value
Activity calls are given as the source filed them.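 Rule for the calls: active = RAM network inhibition above 8.4% in each of two replicates, 3 SD over the compound average; inconclusive = above 8.4% inhibition in only one replicate; inactive = 8.4% inhibition or less in each replicate.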

Worked cases, RAM network inhibition given:
compound | RAM network inhibition
OCCOCCNc1ncnc2nc[nH]c12 | -0.28% (inactive)
COC(=O)c1ccc(-c2nc(-c3cccs3)no2)cc1 | 0.79% (inactive)
CC(=O)N1CCc2cc(C(=O)CN3CCN(C(=O)c4ccco4)CC3)ccc21 | 2.07% (inactive)
CCCCNc1ncnc2c1cnn2-c1ccc(Cl)cc1 | 5.62% (inactive)

Continue with the compound presented below.
[in] Quick one: RAM network inhibition of CC1Cc2nc(SCC(=O)N3CCCC3)n(C)c(=O)c2S1 (stereo not given) ?
[out] 5.83% (inactive)

// data source = PubChem BioAssay
